The values you see were collected from patent US20120178738A1.

- measurement-target: human D2L dopamine receptors (Homo sapiens)
- Construct: expressed in transfected cells; host or cells: insect Sf9 cells (membranes)
- Sequence (P14416 whole entry): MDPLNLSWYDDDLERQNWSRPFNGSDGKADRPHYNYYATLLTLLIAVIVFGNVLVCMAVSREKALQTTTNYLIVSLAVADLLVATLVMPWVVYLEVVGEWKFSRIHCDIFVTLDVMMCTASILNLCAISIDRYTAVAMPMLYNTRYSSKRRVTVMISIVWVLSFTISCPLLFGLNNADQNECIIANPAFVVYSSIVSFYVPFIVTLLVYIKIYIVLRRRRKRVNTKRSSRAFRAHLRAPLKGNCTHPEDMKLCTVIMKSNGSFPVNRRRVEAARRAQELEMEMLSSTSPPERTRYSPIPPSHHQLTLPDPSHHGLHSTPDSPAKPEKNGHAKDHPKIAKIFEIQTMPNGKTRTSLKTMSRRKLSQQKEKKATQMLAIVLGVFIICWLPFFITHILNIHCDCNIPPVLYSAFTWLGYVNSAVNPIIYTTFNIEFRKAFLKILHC
- method: hD2L receptor radioligand binding ([3H]spiperone)
- recorded-conditions: pKi reported on a scale of 1 through 5; read-out: D2L (pKi) (converted)
metric-name: Ki

[
  {
    "molecule": "CC(C)(CO)NC(=O)C[C@H]1CN(C2=Nc3cc(Cl)ccc3Oc3ccccc32)CCN1 [EY]",
    "measurement-target": "human D2L dopamine receptors (Homo sapiens)",
    "data-value": "0.631 to 2.45 µM"
  },
  {
    "molecule": "C[C@H](CC(C)(C)O)OC(=O)C[C@H]1CN(C2=Nc3cc(Cl)ccc3Oc3ccccc32)CCN1 [Compound ED]",
    "measurement-target": "human D2L dopamine receptors (Homo sapiens)",
    "data-value": "0.631 to 2.45 µM"
  },
  {
    "molecule": "CCOC(=O)CC1CN(C2=Nc3ccc(F)cc3Oc3ccccc32)CCN1 (stereo not shown) [J]",
    "measurement-target": "human D2L dopamine receptors (Homo sapiens)",
    "data-value": "2.51 to 9.77 µM"
  },
  {
    "molecule": "CC(C)OC(=O)CC1CN(C2=Nc3cc(Cl)ccc3Oc3ccccc32)CCN1 (stereo not shown) [L]",
    "measurement-target": "human D2L dopamine receptors (Homo sapiens)",
    "data-value": "0.631 to 2.45 µM"
  },
  {
    "molecule": "O=C(C[C@H]1CN(C2=Nc3cc(Cl)ccc3Oc3ccccc32)CCN1)NCCOCCO [FN]",
    "measurement-target": "human D2L dopamine receptors (Homo sapiens)",
    "data-value": "0.631 to 2.45 µM"
  },
  {
    "molecule": "COC(=O)C[C@@H]1CN(C2=Nc3cc(Cl)ccc3Oc3ccccc32)CCN1 [Compound P]",
    "measurement-target": "human D2L dopamine receptors (Homo sapiens)",
    "data-value": "2.51 to 9.77 µM"
  },
  {
    "molecule": "CC(C)OC(=O)CC1CN(C2=Nc3ccc(F)cc3Oc3ccccc32)CCN1 (stereo not shown) [M]",
    "measurement-target": "human D2L dopamine receptors (Homo sapiens)",
    "data-value": "2.51 to 9.77 µM"
  }
]

* * *

pKi values for the compounds below.
- measurement-target: human 5HT7 receptors (Homo sapiens, UniProt P34969)
- Construct: expressed in transfected cells; host or cells: Chinese hamster ovary cells (membranes)
- Sequence (P34969 whole entry): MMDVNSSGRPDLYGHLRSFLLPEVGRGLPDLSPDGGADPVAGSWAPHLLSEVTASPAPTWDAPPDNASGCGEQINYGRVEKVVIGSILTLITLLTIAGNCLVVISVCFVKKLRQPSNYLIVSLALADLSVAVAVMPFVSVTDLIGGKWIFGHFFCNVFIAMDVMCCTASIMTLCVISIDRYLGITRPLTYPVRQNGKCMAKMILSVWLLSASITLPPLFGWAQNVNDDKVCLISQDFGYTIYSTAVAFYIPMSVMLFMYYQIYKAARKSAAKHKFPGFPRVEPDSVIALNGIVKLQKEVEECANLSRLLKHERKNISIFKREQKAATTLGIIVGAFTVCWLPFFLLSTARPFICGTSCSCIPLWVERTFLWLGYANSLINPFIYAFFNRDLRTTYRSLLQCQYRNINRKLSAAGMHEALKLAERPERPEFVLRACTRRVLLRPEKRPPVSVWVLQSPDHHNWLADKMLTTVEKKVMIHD
- method: h5-HT7 receptor radioligand binding ([3H]5-CT)
pKi: −log10 of the molar value.
metric-name: pKi

[
  {
    "compound-string": "O=C(C[C@H]1CN(C2=Nc3cc(Cl)ccc3Oc3ccccc32)CCN1)O[C@@H]1CN2CCC1CC2",
    "metric-name": "pKi",
    "data-value": "5.01 to 5.40"
  },
  {
    "compound-string": "CN1CCN(C2=Nc3cc(Cl)ccc3Oc3ccccc32)C[C@@H]1CC(=O)O[C@@H]1CN2CCC1CC2",
    "metric-name": "pKi",
    "data-value": "< 5.00"
  },
  {
    "compound-string": "O=C(C[C@H]1CN(C2=Nc3cc(Cl)ccc3Oc3ccccc32)CCN1)O[C@H]1CN2CCC1CC2",
    "metric-name": "pKi",
    "data-value": "< 5.00"
  }
]

* * *

Ki values for the molecules below.
Target sequence: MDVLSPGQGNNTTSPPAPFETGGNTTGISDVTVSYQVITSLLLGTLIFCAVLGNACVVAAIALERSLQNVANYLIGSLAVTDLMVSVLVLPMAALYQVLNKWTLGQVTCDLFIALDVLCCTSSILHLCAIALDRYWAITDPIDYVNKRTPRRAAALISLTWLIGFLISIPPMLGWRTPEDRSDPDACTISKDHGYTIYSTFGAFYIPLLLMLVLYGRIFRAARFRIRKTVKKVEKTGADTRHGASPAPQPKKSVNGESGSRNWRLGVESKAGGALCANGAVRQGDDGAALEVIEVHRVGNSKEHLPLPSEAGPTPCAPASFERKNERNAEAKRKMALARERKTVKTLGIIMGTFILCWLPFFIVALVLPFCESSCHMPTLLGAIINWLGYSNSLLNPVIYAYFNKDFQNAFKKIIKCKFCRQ
metric-name: Ki

[
  {
    "molecule": "CCOC(=O)CC1CN(C2=Nc3cc(Cl)ccc3Oc3ccccc32)CCN1 (stereo not drawn) [A]",
    "data-value": "100 to 977 nM"
  },
  {
    "molecule": "CC(C)(C)COC(=O)C[C@H]1CN(C2=Nc3cc(Cl)ccc3Oc3ccccc32)CCN1 [EA]",
    "data-value": "10 to 97.7 nM"
  },
  {
    "molecule": "COC(=O)CC1CN(C2=Nc3cc(Cl)ccc3Oc3ccccc32)CCN1 (stereo not drawn) [I]",
    "data-value": "100 to 977 nM"
  },
  {
    "molecule": "O=C(C[C@H]1CN(C2=Nc3cc(Cl)ccc3Oc3ccccc32)CCN1)NCCOCCO [FN]",
    "data-value": "10 to 97.7 nM"
  },
  {
    "molecule": "COC(=O)C[C@H]1CN(C2=Nc3cc(Cl)ccc3Oc3ccccc32)CCN1C [DW]",
    "data-value": "1000 to 9770 nM"
  },
  {
    "molecule": "CC(C)OC(=O)CC1CN(C2=Nc3ccc(F)cc3Oc3ccccc32)CCN1 (stereo not drawn) [M]",
    "data-value": "100 to 977 nM"
  },
  {
    "molecule": "COC(=O)C[C@H]1CN(C2=Nc3cc(Cl)ccc3Oc3ccccc32)CCN1CC1CC1 [ET]",
    "data-value": "1000 to 9770 nM"
  },
  {
    "molecule": "O=C(C[C@H]1CN(C2=Nc3cc(Cl)ccc3Oc3ccccc32)CCN1)N1CC[C@@H](O)C1 [GE]",
    "data-value": "100 to 977 nM"
  },
  {
    "molecule": "CN(CCO)C(=O)C[C@H]1CN(C2=Nc3cc(Cl)ccc3Oc3ccccc32)CCN1 [FO]",
    "data-value": "100 to 977 nM"
  }
]

* * *

- measurement-target: human 5HT1A receptors (Homo sapiens, UniProt P08908)
- Sequence (P08908 1-422): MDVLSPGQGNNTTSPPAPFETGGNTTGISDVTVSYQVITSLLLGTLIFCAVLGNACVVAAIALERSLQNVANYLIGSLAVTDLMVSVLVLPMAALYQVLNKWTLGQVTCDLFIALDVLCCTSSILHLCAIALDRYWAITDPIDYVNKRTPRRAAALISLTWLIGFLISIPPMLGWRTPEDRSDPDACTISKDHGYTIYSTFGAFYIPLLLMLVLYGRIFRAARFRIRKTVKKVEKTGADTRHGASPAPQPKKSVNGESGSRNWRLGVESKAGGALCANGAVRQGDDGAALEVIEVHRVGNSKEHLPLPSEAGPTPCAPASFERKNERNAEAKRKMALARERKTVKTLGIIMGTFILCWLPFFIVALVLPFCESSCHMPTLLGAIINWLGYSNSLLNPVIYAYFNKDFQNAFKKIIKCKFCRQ
pKi: −log10 of the molar value.

[
  {
    "molecule": "O=C(C[C@H]1CN(C2=Nc3cc(Cl)ccc3Oc3ccccc32)CCN1)N1CCOCC1 [GG]",
    "pKi": "7.01 to 8.00"
  },
  {
    "molecule": "C[C@H](O)C[C@H](C)OC(=O)C[C@H]1CN(C2=Nc3cc(Cl)ccc3Oc3ccccc32)CCN1 [EO]",
    "pKi": "≥ 8.01"
  },
  {
    "molecule": "O=C(C[C@H]1CN(C2=Nc3cc(Cl)ccc3Oc3ccccc32)CCN1)NCC(F)F [FQ]",
    "pKi": "7.01 to 8.00"
  },
  {
    "molecule": "CN1CCN(C2=Nc3cc(Cl)ccc3Oc3ccccc32)C[C@@H]1CC(=O)N(CC(F)(F)F)CC(F)(F)F [EW]",
    "pKi": "5.01 to 6.00"
  },
  {
    "molecule": "COCCNC(=O)C[C@H]1CN(C2=Nc3cc(Cl)ccc3Oc3ccccc32)CCN1 [FC]",
    "pKi": "7.01 to 8.00"
  },
  {
    "molecule": "COC(=O)CC1CN(C2=Nc3cc(C(F)(F)F)ccc3Oc3ccccc32)CCN1 (stereo not shown) [DQ]",
    "pKi": "6.01 to 7.00"
  },
  {
    "molecule": "C[C@@H](O)CNC(=O)C[C@H]1CN(C2=Nc3cc(Cl)ccc3Oc3ccccc32)CCN1 [FB]",
    "pKi": "7.01 to 8.00"
  }
]

* * *

Ki values for the compounds below.
- measurement-target: human 5HT1A receptors (Homo sapiens, UniProt P08908)
- Sequence (P08908 1-422): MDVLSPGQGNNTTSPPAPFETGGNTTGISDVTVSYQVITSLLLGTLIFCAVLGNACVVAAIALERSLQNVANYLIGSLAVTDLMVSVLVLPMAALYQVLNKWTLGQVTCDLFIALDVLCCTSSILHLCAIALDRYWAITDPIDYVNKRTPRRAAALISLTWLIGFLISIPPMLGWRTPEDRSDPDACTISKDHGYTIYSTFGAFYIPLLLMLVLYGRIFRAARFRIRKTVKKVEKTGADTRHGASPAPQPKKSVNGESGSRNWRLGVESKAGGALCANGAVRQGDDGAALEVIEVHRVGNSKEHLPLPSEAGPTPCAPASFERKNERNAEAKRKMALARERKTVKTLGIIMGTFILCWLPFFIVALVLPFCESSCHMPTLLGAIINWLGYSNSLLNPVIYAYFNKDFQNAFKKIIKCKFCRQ
metric-name: Ki

[
  {
    "compound-string": "CN1CCN(C2=Nc3cc(Cl)ccc3Oc3ccccc32)C[C@@H]1CC(=O)O[C@@H]1CN2CCC1CC2",
    "measurement-target": "human 5HT1A receptors (Homo sapiens, UniProt P08908)",
    "data-value": "1000 to 9770 nM"
  },
  {
    "compound-string": "O=C(C[C@H]1CN(C2=Nc3cc(Cl)ccc3Oc3ccccc32)CCN1)O[C@H]1CN2CCC1CC2",
    "measurement-target": "human 5HT1A receptors (Homo sapiens, UniProt P08908)",
    "data-value": "100 to 977 nM"
  },
  {
    "compound-string": "CCCN(CCO)C(=O)C[C@H]1CN(C2=Nc3cc(Cl)ccc3Oc3ccccc32)CCN1",
    "measurement-target": "human 5HT1A receptors (Homo sapiens, UniProt P08908)",
    "data-value": "≤ 9.77 nM"
  },
  {
    "compound-string": "COc1ccc(NC(=O)C[C@H]2CN(C3=Nc4cc(Cl)ccc4Oc4ccccc43)CCN2)cn1",
    "measurement-target": "human 5HT1A receptors (Homo sapiens, UniProt P08908)",
    "data-value": "≤ 9.77 nM"
  },
  {
    "compound-string": "O=C(C[C@H]1CN(C2=Nc3cc(Cl)ccc3Oc3ccccc32)CCN1)OC1CCOCC1",
    "measurement-target": "human 5HT1A receptors (Homo sapiens, UniProt P08908)",
    "data-value": "10 to 97.7 nM"
  },
  {
    "compound-string": "CN1CCN(C2=Nc3cc(Cl)ccc3Oc3ccccc32)C[C@@H]1CC(=O)OC1CCOCC1",
    "measurement-target": "human 5HT1A receptors (Homo sapiens, UniProt P08908)",
    "data-value": "100 to 977 nM"
  },
  {
    "compound-string": "COC(C)(C)CCOC(=O)C[C@H]1CN(C2=Nc3cc(Cl)ccc3Oc3ccccc32)CCN1",
    "measurement-target": "human 5HT1A receptors (Homo sapiens, UniProt P08908)",
    "data-value": "≤ 9.77 nM"
  },
  {
    "compound-string": "O=C(C[C@H]1CN(C2=Nc3cc(Cl)ccc3Oc3ccccc32)CCN1)OC1CCCC1",
    "measurement-target": "human 5HT1A receptors (Homo sapiens, UniProt P08908)",
    "data-value": "10 to 97.7 nM"
  }
]
